// data source = ChEMBL document CHEMBL4330056

Experiment: Cytotoxicity against human Hep2 cells assessed as reduction in cell viability after 3 days by CellTiter-Glo assay
Type: cell-based
Conditions: HEp-2 cells
reported.endpoint: CC50 at 72 h

1) CN(C)c1ncnc2c1c1occc1n2[C@@H]1O[C@H](CO)[C@@H](O)[C@H]1O : > 44.4 µM
2) Cn1ccc2c1c1c(-c3ccco3)ncnc1n2[C@@H]1O[C@H](CO)[C@@H](O)[C@H]1O : > 44.4 µM
3) CSc1ncnc2c1c1c(ccn1C)n2[C@@H]1O[C@H](CO)[C@@H](O)[C@H]1O : > 44.4 µM

Please report CC50 at 72 h for every entry that follows.
1. CSc1ncnc2c1c1occc1n2[C@@H]1O[C@H](CO)[C@@H](O)[C@H]1O
2. Cn1ccc2c3c(-c4cc5ccccc5o4)ncnc3n([C@@H]3O[C@H](CO)[C@@H](O)[C@H]3O)c21
3. Cn1ccc2c3c(-c4ccoc4)ncnc3n([C@@H]3O[C@H](CO)[C@@H](O)[C@H]3O)c21
4. CN(C)c1ncnc2c1c1c(ccn1C)n2[C@@H]1O[C@H](CO)[C@@H](O)[C@H]1O

Response:
1. > 44.4 µM
2. 27.5 to 29.1 µM
3. > 44.4 µM
4. > 44.4 µM

Look at each compound and report its CC50 at 72 h.
1. Cn1ccc2c1c1c(-c3ccoc3)ncnc1n2[C@@H]1O[C@H](CO)[C@@H](O)[C@H]1O
2. CN(C)c1ncnc2c1c1ccn(C)c1n2[C@@H]1O[C@H](CO)[C@@H](O)[C@H]1O
3. Cc1ncnc2c1c1ccn(C)c1n2[C@@H]1O[C@H](CO)[C@@H](O)[C@H]1O
4. Cc1ncnc2c1c1c(ccn1C)n2[C@@H]1O[C@H](CO)[C@@H](O)[C@H]1O
5. Cc1ncnc2c1c1occc1n2[C@@H]1O[C@H](CO)[C@@H](O)[C@H]1O
6. OC[C@H]1O[C@@H](n2c3ccoc3c3c(-c4ccoc4)ncnc32)[C@H](O)[C@@H]1O
7. Cn1ccc2c3c(-c4ccco4)ncnc3n([C@@H]3O[C@H](CO)[C@@H](O)[C@H]3O)c21
8. OC[C@H]1O[C@@H](n2c3ccoc3c3c(-c4cc5ccccc5o4)ncnc32)[C@H](O)[C@@H]1O

Response:
["> 44.4 µM", "> 44.4 µM", "> 44.4 µM", "> 44.4 µM", "> 44.4 µM", "> 44.4 µM", "2.63 to 16.4 µM", "> 44.4 µM"]

Please state, for each entry, its recorded CC50 at 72 h.
1. COc1ncnc2c1c1occc1n2[C@@H]1O[C@H](CO)[C@@H](O)[C@H]1O
2. CSc1ncnc2c1c1ccn(C)c1n2[C@@H]1O[C@H](CO)[C@@H](O)[C@H]1O
3. Cn1ccc2c1c1c(-c3cc4ccccc4o3)ncnc1n2[C@@H]1O[C@H](CO)[C@@H](O)[C@H]1O

Response:
1. > 44.4 µM
2. 36.8 to 44 µM
3. 26.9 to 44.4 µM
